The following compounds are listed with their measured pIC50 values.
system: NHDF-Neo (normal human dermal fibroblast-neonatal cells); assay: MTT cytotoxicity assay, NHDF-Neo healthy cells; format: cell-based; settings: MTT assay, incubation time 24 h, read-out: IC50 NHDF-Neo
pIC50: −log10 of the molar value.

(Q) Query (compound): OCCn1cc(COc2cccc3cccnc23)nn1 [Compound 19a, reference compound] ; field requested: pIC50
(A) < 3.10

(Q) Sample CC(=O)OC[C@H]1O[C@@H](n2cc(COc3cccc4cccnc34)nn2)[C@H](OC(C)=O)[C@@H](OC(C)=O)[C@@H]1OC(C)=O [Compound 13a, reference compound] — what was its pIC50?
(A) 4.24

(Q) I'd like to know its pIC50. The compound in question is "CC(=O)OC[C@H]1O[C@@H](OCCN=[N+]=[N-])[C@H](OC(C)=O)[C@@H](OC(C)=O)[C@H]1OC(C)=O"
(A) < 3.10

* * *

test system: HCT 116 (human colorectal cancer cell line); assay: MTT cytotoxicity assay, HCT 116 cells; type: cell-based; details: MTT assay, incubation time 24 h; read-out: IC50 HCT 116
EXPERIMENTAL READOUT: IC50
Answers without a unit are incomplete; give the number and then its unit.

(Q) # query: IC50 | item "CC(=O)OC[C@H]1O[C@@H](OCCn2cc(CNc3cccc4cccnc34)nn2)[C@H](OC(C)=O)[C@@H](OC(C)=O)[C@H]1OC(C)=O" | system: HCT 116 (human colorectal cancer cell line)
(A) 290 µM

* * *

# key: entry, value: SI (MCF-7) + Cu2+
system: MCF-7 (human breast adenocarcinoma cell line); experiment: MTT assay in medium with 20 µM CuCl2, MCF-7 cells; type: cell-based; conditions: addition of CuCl2 at 20 µM; ratio of IC50 NHDF-Neo to IC50 MCF-7

Consider the reported SI (MCF-7) + Cu2+ for these compounds:
smiles_repr=CC(=O)OC[C@H]1O[C@@H](n2cc(CNc3cccc4cccnc34)nn2)[C@H](OC(C)=O)[C@@H](OC(C)=O)[C@H]1OC(C)=O observed_measurement=>5.8
smiles_repr=CC(=O)OC[C@H]1O[C@@H](n2cc(CNc3cccc4cccnc34)nn2)[C@H](OC(C)=O)[C@@H](OC(C)=O)[C@@H]1OC(C)=O observed_measurement=>2.8
smiles_repr=CC(=O)OC[C@H]1O[C@@H](OCCn2cc(CNc3cccc4cccnc34)nn2)[C@H](OC(C)=O)[C@@H](OC(C)=O)[C@@H]1OC(C)=O observed_measurement=>5.9
smiles_repr=CC(=O)OC[C@H]1O[C@@H](OCc2cn(CCCNc3cccc4cccnc34)nn2)[C@H](OC(C)=O)[C@@H](OC(C)=O)[C@H]1OC(C)=O observed_measurement=>5.6
smiles_repr=CC(=O)OC[C@H]1O[C@@H](OCc2cn(CCCNc3cccc4cccnc34)nn2)[C@H](OC(C)=O)[C@@H](OC(C)=O)[C@@H]1OC(C)=O observed_measurement=>5.7

(Q) What value of measured SI (MCF-7) + Cu2+ is listed for "CC(=O)OC[C@H]1O[C@@H](OCCn2cc(CNc3cccc4cccnc34)nn2)[C@H](OC(C)=O)[C@@H](OC(C)=O)[C@H]1OC(C)=O" ?
(A) >6.3

* * *

Tested on: NHDF-Neo (normal human dermal fibroblast-neonatal cells)
Assay: MTT cytotoxicity assay, NHDF-Neo healthy cells
Type: cell-based
Details: MTT assay, incubation time 24 h, read-out: IC50 NHDF-Neo
Experimental: Cytotoxicity screening of the obtained glycoconjugates, their potential metabolites, and substrates used for their synthesis was conducted using the MTT assay. All cells were kept in a humidified incubator at 37 °C in a 5% CO2 atmosphere. Cell viability was assessed by the MTT (3-[4,5–dimethylthiazol-2-yl]-2,5-diphenyltetrazolium bromide) test (ACROS Organics). Stock solutions of tested compounds were prepared in DMSO and stored accordingly. […]
pIC50: −log10 of the molar value.
// values below are reported pIC50

Example entries and their recorded answers appear below.
molecule="CC(=O)OC[C@H]1O[C@@H](N=[N+]=[N-])[C@H](OC(C)=O)[C@@H](OC(C)=O)[C@H]1OC(C)=O [Compound 8]" observed_measurement="< 3.10"
molecule="CC(=O)OC[C@H]1O[C@@H](n2cc(COc3cccc4cccnc34)nn2)[C@H](OC(C)=O)[C@@H](OC(C)=O)[C@H]1OC(C)=O [Compound 14a, reference compound]" observed_measurement=4.50

API: the following record is the query input.
(Q) Notebook: pull reported pIC50 for NHDF-Neo (normal human dermal fibroblast-neonatal cells), entry OCc1cn(CCCOc2cccc3cccnc23)nn1 [Compound 20a, reference compound]
(A) < 3.10

Values compiled from paper PMC11767929.
